- assay-notes: Further solubility studies in solvents, mixtures and surfactants
- Assay type: physicochemical
- protocol-conditions: propylene glycol, organic solvent or mixture, thermodynamic from solid, propylene glycol (PG); read-out: solubility
endpoint-label: solubility at 24 h (mg/mL)
Answer with a number only, understood to be in mg/mL.

Ask | Requested read-out: solubility at 24 h. Entry: C=Cc1cc(C(=O)Nc2ccc(C(=N)N)cc2)c(-c2ccc(C(=O)NCC3CC3)nc2C(=O)O)cc1OC
Reply | 150

---

- assay-notes: Phase 1 Part 2, multiple ascending dose pharmacokinetics (7 days, q8h)
- Format: in vivo, human
- protocol-conditions: human, plasma, oral, 400 mg, Day 1, 400 mg q 8 h, Median
endpoint-label: Tmax (h)
Answer with a number only, understood to be in h.

Ask | Requested read-out: Tmax. Entry: C=Cc1cc(C(=O)Nc2ccc(C(=N)N)cc2)c(-c2ccc(C(=O)NCC3CC3)nc2C(=O)O)cc1OC
Reply | 2

---

- assay-notes: Further solubility studies in solvents, mixtures and surfactants
- Type: physicochemical
- protocol-conditions: PG/PEG mixtures, organic solvent or mixture, thermodynamic from solid, some PG/PEG mixtures; read-out: solubility
endpoint-label: solubility at 24 h

Ask | Requested read-out: solubility at 24 h. Entry: C=Cc1cc(C(=O)Nc2ccc(C(=N)N)cc2)c(-c2ccc(C(=O)NCC3CC3)nc2C(=O)O)cc1OC
Reply | 50 to 60 mg/mL

---

- assay-notes: Phase 1 Part 2, multiple ascending dose pharmacokinetics (7 days, q8h)
- Assay type: in vivo, human
- protocol-conditions: human, plasma, oral, 400 mg, Day 7, 400 mg q 8 h, GM; read-out: t1/2 (converted)
- Excerpt: Part 2 of the study evaluated the safety, tolerability, PK, and PD of multiple ascending doses of the compound of Example 1. […]
endpoint-label: half-life (h)
Answer with a number only, understood to be in h.

Ask | Requested read-out: half-life. Entry: C=Cc1cc(C(=O)Nc2ccc(C(=N)N)cc2)c(-c2ccc(C(=O)NCC3CC3)nc2C(=O)O)cc1OC
Reply | 13

---

- assay-notes: Phase 1 Part 2, multiple ascending dose pharmacokinetics (7 days, q8h)
- Assay type: in vivo, human
- protocol-conditions: human, plasma, oral, 100 mg, Day 7, 100 mg q 8 h, GM
endpoint-label: Cmax (ng/mL)
Answer with a number only, understood to be in ng/mL.

Ask | Requested read-out: Cmax. Entry: C=Cc1cc(C(=O)Nc2ccc(C(=N)N)cc2)c(-c2ccc(C(=O)NCC3CC3)nc2C(=O)O)cc1OC [Example 1]
Reply | 72.6

---

- assay-notes: Further solubility studies in solvents, mixtures and surfactants
- Assay type: physicochemical
- protocol-conditions: 6% EtOH/15% glycerin/79% water containing 0.3% Tween80, aqueous with cosolvent or surfactant or cyclodextrin, thermodynamic from solid, 6% EtOH/15% glycerin/79% water containing 0.3% Tween80; read-out: Example 1 Solubility After 24 hrs
endpoint-label: solubility at 24 h (µg/mL)
Answer with a number only, understood to be in µg/mL.

Ask | Requested read-out: solubility at 24 h. Entry: C=Cc1cc(C(=O)Nc2ccc(C(=N)N)cc2)c(-c2ccc(C(=O)NCC3CC3)nc2C(=O)O)cc1OC [Example 1]
Reply | 300

---

- assay-notes: Phase 1 Part 2, multiple ascending dose pharmacokinetics (7 days, q8h)
- Format: in vivo, human
- protocol-conditions: human, plasma, oral, 800 mg, Day 7, 800 mg q 8 h, GM
- Text: Part 2 of the study evaluated the safety, tolerability, PK, and PD of multiple ascending doses of the compound of Example 1. […]
endpoint-label: AUC
Reply with the number and its unit after it.

Ask | Requested read-out: AUC. Entry: C=Cc1cc(C(=O)Nc2ccc(C(=N)N)cc2)c(-c2ccc(C(=O)NCC3CC3)nc2C(=O)O)cc1OC
Reply | 678 ng·h/mL

---

- assay-notes: Solubility with cyclodextrins and co-agents
- Assay type: physicochemical
- protocol-conditions: α-cyclodextrin solution with co-agent, aqueous with cosolvent or surfactant or cyclodextrin, thermodynamic from solid, α-cyclodextrin 150 mM, Polyethylene glycol 400 10%
- Procedure: Additional solubility studies were undertaken using cyclodextrins, including α-cyclodextrin and a polyanionic β-cyclodextrin derivative with a sodium sulfonate salt separated from the lipophilic cavity by a butyl ether or sulfobutylether spacer group) (referred to herein as Captisol) in combination with a variety of co-agents. Test samples were prepared with the indicated cyclodextrins and the compound of Example 1, both with and without additional agents. […]
endpoint-label: solubility (µg/mL)
Answer with a number only, understood to be in µg/mL.

Ask | Requested read-out: solubility. Entry: C=Cc1cc(C(=O)Nc2ccc(C(=N)N)cc2)c(-c2ccc(C(=O)NCC3CC3)nc2C(=O)O)cc1OC
Reply | 5000

---

- assay-notes: Phase 1 Part 2, multiple ascending dose pharmacokinetics (7 days, q8h)
- Assay type: in vivo, human
- protocol-conditions: human, plasma, oral, 100 mg, Day 1, 100 mg q 8 h, GM; read-out: AUC0-8
endpoint-label: AUC(0-t) (ng·h/mL)
Answer with a number only, understood to be in ng·h/mL.

Ask | Requested read-out: AUC(0-t). Entry: C=Cc1cc(C(=O)Nc2ccc(C(=N)N)cc2)c(-c2ccc(C(=O)NCC3CC3)nc2C(=O)O)cc1OC
Reply | 173

---

- assay-notes: Further solubility studies in solvents, mixtures and surfactants
- Format: physicochemical
- protocol-conditions: 2.5% SLS in 97.5% PEG400, organic solvent or mixture, thermodynamic from solid, 2.5% SLS in 97.5% PEG400; read-out: Example 1 Solubility After 24 hrs
endpoint-label: solubility at 24 h (mg/mL)
Answer with a number only, understood to be in mg/mL.

Ask | Requested read-out: solubility at 24 h. Entry: C=Cc1cc(C(=O)Nc2ccc(C(=N)N)cc2)c(-c2ccc(C(=O)NCC3CC3)nc2C(=O)O)cc1OC
Reply | 31.3

---

- assay-notes: Solubility with cyclodextrins and co-agents
- Assay type: physicochemical
- protocol-conditions: Captisol 150 mM with sodium dodecyl sulphate 100 mg, aqueous with cosolvent or surfactant or cyclodextrin, thermodynamic from solid, Captisol 150 mM, Sodium dodecyl sulphate 100 mg
endpoint-label: solubility
Reply with the number and its unit after it.

Ask | Requested read-out: solubility. Entry: C=Cc1cc(C(=O)Nc2ccc(C(=N)N)cc2)c(-c2ccc(C(=O)NCC3CC3)nc2C(=O)O)cc1OC
Reply | 240 µg/mL

---

- assay-notes: Phase 1 Part 2, multiple ascending dose pharmacokinetics (7 days, q8h)
- Type: in vivo, human
- protocol-conditions: human, plasma, oral, 800 mg, Day 7, 800 mg q 8 h, Median
endpoint-label: AUC (ng·h/mL)
Answer with a number only, understood to be in ng·h/mL.

Ask | Requested read-out: AUC. Entry: C=Cc1cc(C(=O)Nc2ccc(C(=N)N)cc2)c(-c2ccc(C(=O)NCC3CC3)nc2C(=O)O)cc1OC [Example 1]
Reply | 835

---

- assay-notes: Caco-2 bi-directional permeability, absence and presence of P-gp inhibitor verapamil
- Format: in vitro ADME
- protocol-conditions: human; Caco-2, P-gp inhibitor absent
endpoint-label: Papp A→B (×10⁻⁶ cm/s)
Answer with a number only, understood to be in ×10⁻⁶ cm/s.

Ask | Requested read-out: Papp A→B. Entry: C=Cc1cc(C(=O)Nc2ccc(C(=N)N)cc2)c(-c2ccc(C(=O)NCC3CC3)nc2C(=O)O)cc1OC
Reply | 0.5

---

- assay-notes: Aqueous solubility assay in buffer and simulated gastric/intestinal fluids
- protocol-conditions: 37 °C, fassif, thermodynamic from solid, Observed Solubility, Target 100 μM, Fasted-State SIF, 24 hours
endpoint-label: solubility at 24 h
Reply with the number and its unit after it.

1) C[C@]12CC[C@H]3[C@@H](CCC4=CC(=O)CC[C@@]43C)[C@@H]1CC[C@@H]2O [Testosterone, reference compound] :: 35 µM

Now look at this one.
Ask | Requested read-out: solubility at 24 h. Entry: C=Cc1cc(C(=O)Nc2ccc(C(=N)N)cc2)c(-c2ccc(C(=O)NCC3CC3)nc2C(=O)O)cc1OC
Reply | 111 µM

---

- assay-notes: Phase 1 Part 1, single ascending oral dose pharmacokinetics and food effect
- Assay type: in vivo, human
- protocol-conditions: human, plasma, po, 500 mg, 500 mg single oral dose, FASTED; GM; read-out: t1/2 (converted)
- Experimental: A two-part, Phase 1, double-blind, placebo-controlled study of the compound of Example 1 was conducted in healthy subjects. Part 1 of the study assessed the safety, tolerability and the pharmacokinetic (PK) and pharmacodynamic (PD) properties of the compound of Example 1 following a single ascending dose. […] Compound concentrations then declined biphasically and were quantifiable through 9 hours postdose in Cohort 1 (50 mg) and 24 hours postdose in Cohorts 4 and 5 (500 and 1000 mg).
endpoint-label: half-life (h)
Answer with a number only, understood to be in h.

Ask | Requested read-out: half-life. Entry: C=Cc1cc(C(=O)Nc2ccc(C(=N)N)cc2)c(-c2ccc(C(=O)NCC3CC3)nc2C(=O)O)cc1OC [Example 1]
Reply | 15.4
